Conditions: in toluene, 298.15 K
PARAMETER: solubility (mole fraction)
Answers are plain numbers.

Q) Indicate its recorded solubility (mole fraction); the compound in question is S=c1[nH]c2ccccc2s1
A) 0.00378

====

Details: in isopropanol, 318.15 K
PARAMETER: solubility (mole fraction)

Q) Please report the measured solubility (mole fraction) for S=c1[nH]c2ccccc2s1
A) 0.0408

====

Conditions: in 2-butanone, 315.65 K
PARAMETER: solubility (mole fraction)
Give bare numbers.

Q) Read off the recorded solubility (mole fraction) for S=c1[nH]c2ccccc2s1
A) 0.124

====

Conditions: in n-butanol, 308.15 K
PARAMETER: solubility (mole fraction)
Answers are plain numbers.

Q) Please supply the value of reported solubility (mole fraction) for the item S=c1[nH]c2ccccc2s1
A) 0.0425

The reported measurements were obtained from BigSolDB 2.1.
